# test system: human orexin 1 receptors (Homo sapiens)
# Sequence (O43613 whole entry): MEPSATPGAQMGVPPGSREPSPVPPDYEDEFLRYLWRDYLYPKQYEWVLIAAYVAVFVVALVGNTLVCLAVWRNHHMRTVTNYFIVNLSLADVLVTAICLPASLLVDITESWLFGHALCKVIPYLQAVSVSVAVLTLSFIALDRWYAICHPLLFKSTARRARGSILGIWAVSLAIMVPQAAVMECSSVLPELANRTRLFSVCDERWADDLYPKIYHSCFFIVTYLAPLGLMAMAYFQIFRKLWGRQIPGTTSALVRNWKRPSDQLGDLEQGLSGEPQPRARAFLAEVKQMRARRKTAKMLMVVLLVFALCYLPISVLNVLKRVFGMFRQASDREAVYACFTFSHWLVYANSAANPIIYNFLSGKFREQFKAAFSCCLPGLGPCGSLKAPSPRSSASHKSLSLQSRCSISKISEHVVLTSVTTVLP
# test summary: Calcium accumulation in cells (FLIPR), hOx1R
# conditions: read-out: FLIPR hOx1R Ki; inhibition of orexin A induced calcium accumulation; Cheng and Prusoff correction
measured quantity: Ki (nM)
Give bare numbers, in nM.

compound: Cc1cc(C)nc(N2CCC3(CCCN(Cc4ccccc4-c4nc(C)no4)C3=O)CC2)n1 [Example 1]
test system: human orexin 1 receptors (Homo sapiens)
measured quantity: Ki
numeric result: 1620

Okay, now this compound:
Report Ki for COC(=O)c1ccc2[nH]cc(CN3CCCC4(CCN(c5nc(C)cc(C)n5)CC4)C3=O)c2c1 [Example 115] please.
21

* * *

# test system: UniProt O43614
# test summary: Calcium accumulation in cells (FLIPR), hOx2R
# conditions: inhibition of orexin A induced calcium accumulation; Cheng and Prusoff correction
pKi: −log10 of the molar value.
Please note: rule met applies when pKi is 8 or greater, and rule not met applies otherwise.

These recorded examples may help you get a feel for the data.
chemical smiles: COc1cc(-c2nn(C)nc2CN2CCCC3(CCN(c4nc(C)cc(C)n4)CC3)C2=O)ccn1
label value: rule met

chemical smiles: O=C1N(Cc2cccc3c2OCCO3)CCCC12CCN(c1cncc(Cl)n1)CC2
label value: rule not met

chemical smiles: COc1cncc(N2CCC3(CCCN(Cc4c[nH]c5ccccc45)C3=O)CC2)n1
label value: rule not met

chemical smiles: COC(=O)c1ccc2[nH]cc(CN3CCCC4(CCN(c5nc(C)cc(C)n5)CC4)C3=O)c2c1
label value: rule met

Please find the next compound below.
Does pKi meet or surpass 8 for Cc1cc(C#N)nc(N2CCC3(CCCN(Cc4ccccc4-n4nccn4)C3=O)CC2)n1 ?
rule not met

* * *

Consider the following compounds; for each one, report its Kd.
# test system: human orexin 2 receptors (Homo sapiens)
# Sequence (O43614 1-444): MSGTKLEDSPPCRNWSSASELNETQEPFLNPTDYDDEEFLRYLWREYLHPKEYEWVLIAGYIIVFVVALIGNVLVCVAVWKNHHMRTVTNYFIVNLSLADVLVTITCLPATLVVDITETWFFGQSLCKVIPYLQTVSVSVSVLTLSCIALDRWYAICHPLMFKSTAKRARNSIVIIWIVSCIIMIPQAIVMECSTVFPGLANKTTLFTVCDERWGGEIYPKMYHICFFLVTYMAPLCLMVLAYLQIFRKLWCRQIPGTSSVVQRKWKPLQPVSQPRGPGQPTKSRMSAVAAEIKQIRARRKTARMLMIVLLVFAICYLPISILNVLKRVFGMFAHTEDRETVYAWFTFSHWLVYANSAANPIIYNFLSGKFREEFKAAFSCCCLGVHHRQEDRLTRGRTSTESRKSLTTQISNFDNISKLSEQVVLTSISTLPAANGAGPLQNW
One number for each entry, in nM.

compound: COc1cc(-c2nn(C)nc2CN2CCCC3(CCN(c4nc(C)cc(C)n4)CC3)C2=O)ccn1 [Example 122]
numeric result: 14
//
compound: COc1cncc(N2CCC3(CCCN(Cc4c[nH]c5ccccc45)C3=O)CC2)n1 [Example 82]
numeric result: 3160

What value of Kd has been recorded for this entry: Cc1cc(C#N)nc(N2CCC3(CCCN(Cc4ccccc4-n4nccn4)C3=O)CC2)n1 [Example 25]
389

Every entry's value here was drawn from patent US20130281463A1.
